# System Under Test: Protein smoothened (Homo sapiens)
# Sequence (Q99835 whole entry): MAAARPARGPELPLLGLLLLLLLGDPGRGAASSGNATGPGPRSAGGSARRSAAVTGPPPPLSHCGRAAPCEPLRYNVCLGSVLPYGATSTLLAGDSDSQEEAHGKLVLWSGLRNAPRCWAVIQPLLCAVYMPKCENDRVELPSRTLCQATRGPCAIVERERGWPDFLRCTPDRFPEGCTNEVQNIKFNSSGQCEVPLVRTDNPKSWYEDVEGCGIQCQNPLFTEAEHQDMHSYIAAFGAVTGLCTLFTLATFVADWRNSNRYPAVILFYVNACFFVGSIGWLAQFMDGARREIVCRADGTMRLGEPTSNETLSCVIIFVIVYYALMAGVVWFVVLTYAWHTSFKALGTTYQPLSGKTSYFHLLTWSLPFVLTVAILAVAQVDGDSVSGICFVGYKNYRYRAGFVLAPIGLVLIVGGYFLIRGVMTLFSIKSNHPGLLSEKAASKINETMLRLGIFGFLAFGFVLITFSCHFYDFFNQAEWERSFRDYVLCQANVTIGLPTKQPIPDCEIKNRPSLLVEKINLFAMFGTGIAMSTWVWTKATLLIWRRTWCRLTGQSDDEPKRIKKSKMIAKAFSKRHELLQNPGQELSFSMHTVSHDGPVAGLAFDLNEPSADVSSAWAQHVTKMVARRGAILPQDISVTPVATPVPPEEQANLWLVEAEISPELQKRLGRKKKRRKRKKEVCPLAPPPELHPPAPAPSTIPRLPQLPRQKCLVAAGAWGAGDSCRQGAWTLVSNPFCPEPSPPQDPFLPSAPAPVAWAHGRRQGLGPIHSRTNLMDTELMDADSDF
# Protocol Notes: Radioligand Competition Binding Assay: For the binding competition assay, 100 μL of Assay Buffer was added to all the wells of a 96 well GF/B filter plate (Millipore MultiScreen-HTS-FB cat# MSFBN6B50) for 10 minutes to pre-wet the filter prior to evacuation of the buffer (8 inches Hg for 8 seconds). To the pre-wet wells is added: 20 μL of Assay Buffer, 10 μL diluted test agent, 20 μL of a tritiated Smo antagonist (15 nM stock solution), and 50 μL of membrane preparation (40 μg total protein per well). The plates are sealed and mixed at room temperature for 5 min, incubated at room temperature for 2 hours, then washed 5 times with 100 μL/each of wash buffer and vacuum dried for 8 seconds at 8 inches Hg. The plate is then dried for one hour in a 60° C. oven prior to the addition of 45 μL of Microscint 20 (Packard, #6013621) to each well and incubation at RT for 30 minutes to 1 hour. The plate is counted in a TopCount scintillation counter (Perkin Elmer).
pIC50: −log10 of the molar value.
Measurement Label: pIC50

(1) O=C(CCO)NC1CCN(c2ccc(Cl)c(-c3ccccn3)n2)CC1
(2) Cc1cccnc1-c1cc(N2CCN(c3ncc(Br)cn3)CC2)ncc1Cl
(3) Cc1ccc(-c2nc(N3CCN(C(=O)CCS(C)(=O)=O)CC3)ccc2Cl)nc1
# input Kindly order the items shown according to pIC50, from the highest value down. Rank them, then answer with their labels in that order.
# output 3, 2, 1

Measured values drawn from ChEMBL document CHEMBL3638904 for this set.
